# Target System: mMC4R (Mus musculus)
# Construct: expressed in transfected cells
# Sequence (P56450 whole entry): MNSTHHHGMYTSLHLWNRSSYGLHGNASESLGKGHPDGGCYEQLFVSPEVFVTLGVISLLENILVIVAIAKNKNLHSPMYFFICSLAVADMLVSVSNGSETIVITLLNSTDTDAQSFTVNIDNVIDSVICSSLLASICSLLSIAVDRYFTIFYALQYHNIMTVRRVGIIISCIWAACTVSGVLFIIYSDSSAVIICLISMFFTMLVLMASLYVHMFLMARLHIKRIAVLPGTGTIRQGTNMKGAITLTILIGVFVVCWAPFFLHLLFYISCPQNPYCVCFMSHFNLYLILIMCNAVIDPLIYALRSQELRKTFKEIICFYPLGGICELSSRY
# Measurement Description: β-galactosidase cAMP reporter assay, antagonist Schild analysis with NDP-MSH as agonist
# Type: cell-based
# Test Conditions: Schild analysis, agonist NDP-MSH; <5.5 = no antagonist potency at highest range (10,000, 5000, 1000, 500 nM)
Non-standard residues stand in square brackets, D forms with d. Residues, ends and D or L forms follow the SMILES beside them. dPhe(4-tBu) = CC(C)(C)c1ccc(C[C@@H](N)C(=O)O)cc1; dPhe(3,4-Cl2) = N[C@H](Cc1ccc(Cl)c(Cl)c1)C(=O)O; dPhe(4-CF3) = N[C@H](Cc1ccc(C(F)(F)F)cc1)C(=O)O; dBip = N[C@H](Cc1ccc(-c2ccccc2)cc1)C(=O)O; Tic = O=C(O)[C@@H]1Cc2ccccc2CN1
Provide the reported mMC4R pA2 of each item.
Numbers only.

Example entries and their recorded answers appear below.
* CC(=O)N[C@@H](Cc1c[nH]cn1)C(=O)N[C@@H](CCCNC(=N)N)C(=O)N[C@H](Cc1ccc(-c2ccccc2)cc1)C(=O)N1Cc2ccccc2C[C@H]1C(N)=O [KNS2-23-1, Ac-His-Arg-DBip-Tic-NH2] (Ac-HR[dBip][Tic]-NH2) | 5.9
* CC(=O)N[C@@H](Cc1c[nH]cn1)C(=O)N[C@@H](CCCNC(=N)N)C(=O)N[C@H](Cc1ccc(C(F)(F)F)cc1)C(=O)N1Cc2ccccc2C[C@H]1C(N)=O [KNS2-23-6, Ac-His-Arg-(pCF3)DPhe-Tic-NH2] (Ac-HR[dPhe(4-CF3)][Tic]-NH2) | 6.5
* CC(=O)N[C@@H](Cc1c[nH]cn1)C(=O)N[C@@H](CCCNC(=N)N)C(=O)N[C@H](Cc1ccc(C(C)(C)C)cc1)C(=O)N1Cc2ccccc2C[C@H]1C(N)=O [KNS2-23-3, Ac-His-Arg-(ptBu)DPhe-Tic-NH2] (Ac-HR[dPhe(4-tBu)][Tic]-NH2) | 6.8

Given item CC(=O)N[C@@H](Cc1c[nH]cn1)C(=O)N[C@@H](CCCNC(=N)N)C(=O)N[C@H](Cc1ccc(Cl)c(Cl)c1)C(=O)N1Cc2ccccc2C[C@H]1C(N)=O [KNS2-23-4, Ac-His-Arg-(3,4-diCl)DPhe-Tic-NH2] (Ac-HR[dPhe(3,4-Cl2)][Tic]-NH2) , the value recorded as its mMC4R pA2 is 6.2
